B1: DLC1 (parent)
chain: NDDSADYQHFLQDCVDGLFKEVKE

- Variants of: B1
- measurement notes: protein stability index of a GFP-peptide fusion (GPS, HEK-293T) (PSI 1-6); higher = more stable;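 further: lentivirally expressed fusions sorted by FACS into six bins by GFP to DsRed ratio, PSI derived from sequencing read proportions per bin multiplied by bin number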
- applied conditions: c terminus: a fixed tail appended
The entries below come with measured protein stability index values attached.

Illustrative cases are given below, each with its answer.
L11A 5.62
D16Q 2.31
E24G 3.66

Next variant, protein stability index to be filled in.
State the recorded protein stability index for this entry: `L11Q` 5.4
